These data points were gathered from patent US20230094463A1.

Target: T1, Human Galectin-3 protein (Acro Biosystems, GA3-H5129) (human, UniProt P17931 2-250)
T1 construct: Bought protein; also called Gal3-ECD-His; Gal3-His; not shown: linker-spaced 6-histidine tag
T1 sequence (P17931 2-250): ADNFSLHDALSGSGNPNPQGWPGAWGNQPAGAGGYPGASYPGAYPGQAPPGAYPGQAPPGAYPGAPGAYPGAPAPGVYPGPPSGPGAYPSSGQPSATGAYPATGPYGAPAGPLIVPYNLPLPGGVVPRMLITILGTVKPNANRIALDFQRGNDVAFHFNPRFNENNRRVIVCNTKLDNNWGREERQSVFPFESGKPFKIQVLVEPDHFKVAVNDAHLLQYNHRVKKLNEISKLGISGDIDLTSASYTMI
Experiment: SPR (Biacore T200), antibody captured, Galectin-3 as analyte
property_name: pKd
For clarity, pKd is expressed as the negative log10 of concentration in mol/L.

Recorded pKd (binder IMT006 (TB006) (antibody, V domains shown, anti-Gal3 antibody) VH: QVQLVQSGAEVKKPGASVKVSCKASGYSFTNYYMHWVRQAPGQRLEWMGWIYPGSGNTNYNEKFQGRVTITADTSASTAYMELSSLRSEDTAVYYCSTAPGGFDVWGQGTTVTVSS VL: DIVMTQTPLSLSVTPGQPASISCKSSKSLLHSDGITYLYWYLQKPGQSPQLLIYRMSNLASGVPDRFSGSGSGTDFTLKISRVEAEDVGVYYCAQMLEFPLTFGQGTKLEIK ): 7.78
